Molecular target: NADPH oxidase 4 (Homo sapiens) (UniProt Q9NPH5)
Sequence (Q9NPH5 whole entry, looked up): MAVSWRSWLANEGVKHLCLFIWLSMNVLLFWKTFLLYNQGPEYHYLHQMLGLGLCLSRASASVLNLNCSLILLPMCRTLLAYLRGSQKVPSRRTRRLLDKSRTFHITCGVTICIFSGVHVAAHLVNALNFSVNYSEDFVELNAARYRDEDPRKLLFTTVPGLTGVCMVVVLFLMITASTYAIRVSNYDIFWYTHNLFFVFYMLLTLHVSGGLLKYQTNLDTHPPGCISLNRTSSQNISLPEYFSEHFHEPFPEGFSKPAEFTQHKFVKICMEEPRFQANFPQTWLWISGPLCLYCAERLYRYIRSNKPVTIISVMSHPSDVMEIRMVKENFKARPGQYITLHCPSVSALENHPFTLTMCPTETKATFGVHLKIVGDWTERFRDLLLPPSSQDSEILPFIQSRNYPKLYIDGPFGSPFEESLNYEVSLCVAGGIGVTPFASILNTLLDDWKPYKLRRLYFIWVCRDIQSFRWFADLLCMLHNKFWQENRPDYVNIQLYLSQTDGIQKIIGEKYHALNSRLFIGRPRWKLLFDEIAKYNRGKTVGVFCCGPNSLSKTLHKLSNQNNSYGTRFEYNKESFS
Assay: NOX4-dependent H2O2 signal modulators, primary screen, NOX inhibitor project, cell-based, HEK293-NOX4, tetracycline-induced, Amplex Red fluorescence (AID 1160)
Conditions: 45 min, higher = more signal, called active from +8 up or from −8 down
# binarize z-score: threshold 0.6 inclusive, high side criterion met, low side criterion not met

### Prompt Please check the record CCOC(=O)[C@H](CC(C)C)NC(=O)CCC1CC(OC(=O)NCc2cccc3ccccc23)CC2(CCCC(COC(=O)NCCOc3ccccc3)O2)O1 (some centres not stated) and state if its z-score is at or above 0.6.
### Response criterion met

### Prompt Kindly determine if z-score recorded for `Cc1ccc(S(=O)(=O)N[C@H]2COC(=O)CC=C[C@H](C)[C@@H](NS(=O)(=O)c3ccc(C)cc3)COC(=O)CC=C[C@@H]2C)cc1` is above or exactly 0.6.
### Response criterion not met

### Prompt Is it the case that `CC(=O)Nc1ccc([C@@H]2N[C@H](C(=O)O)CC[C@H]2C)cc1` has z-score reaching or exceeding 0.6?
### Response criterion not met

### Prompt Determine whether this compound has z-score no lower than 0.6: `COc1cccc([C@H]2Oc3ccc(OC)cc3C(=NO[C@@H]3O[C@H](COC(C)=O)[C@@H](OC(C)=O)[C@H](OC(C)=O)[C@H]3OC(C)=O)[C@@H]2O)c1`
### Response criterion met

### Prompt Is reported z-score greater than or equal to 0.6 here: O=C1CCCC=C1C(O)CCOC(c1ccccc1)(c1ccccc1)c1ccccc1 (configuration not stated)
### Response criterion not met

### Prompt Given the entry CCOC(=O)[C@H](CC(C)C)NC(=O)CCC1CC(OC(=O)NCc2cccc3ccccc23)CC2(CCCC(COC(=O)NCCC(C)C)O2)O1 (some centres not stated) , answer whether its z-score meets or surpasses 0.6.
### Response criterion met

----------
Target: Streptavidin (Streptomyces avidinii)
Assay: streptavidin binders on small-molecule microarray, primary screen, artefact control for SMM compound annotation, biophysical, 635/667 nm fluorescence (AID 1147);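 note: signal reflects streptavidin binding to arrayed compounds as a control protein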
Details: streptavidin binding, higher = more signal
Endpoint Label: composite z-score
Reply briefly: the number, and no unit.

Take a look at these entries with their results.
O=C1OCCC=C1C(O)CCc1ccccc1 (stereo not drawn)    0.992
C=C(C)C(=O)OCC1CN2[C@@H](CC[C@@H](C)[C@@H]2c2ccc(Br)cc2)C(=O)O1 (stereo partly drawn)    0.33
CCOC(=O)CCN1C(=O)[C@H]2[C@H]3[C@H](O)[C@H](O)CC(=NOCC(C)C)[C@H]3CC[C@H]2C1=O    -0.0341

Please fill in: composite z-score reported for CCOC(=O)[C@H](CC(C)C)NC(=O)CCC1CC(OC(=O)NCCc2ccc(F)cc2)CC2(CCCC(COC(=O)NCC(c3ccccc3)c3ccccc3)O2)O1 (stereo partly drawn) = 1.22

So for `CC(C)=NO[C@H](C)c1cn([C@H](CO)Cc2ccccc2)nn1` , the logged composite z-score turned out to be 1.14

Summary for this molecule, `CC(C)CON=C1[C@H]2CCn3c(=O)n(Cc4cc5c(cc4Cl)OCO5)c(=O)n3[C@H]2[C@H](O)[C@@H]2O[C@H]12` : composite z-score is 1.49

The recorded composite z-score for C[C@H]1CC[C@H]2C(=O)OC(CO)CN2[C@@H]1c1ccc(Br)cc1 (stereo partly drawn) is -0.281

// field: composite z-score; key: `C[C@@H](c1ccccc1)N1C(=O)[C@H]2[C@H]3[C@H](O)[C@H](O)CC(=NO[C@@H]4O[C@H](CO)[C@@H](O)[C@H](O)[C@H]4O)[C@@H]3CC[C@H]2C1=O` ; value = 0.238

----------
Test system: XIP peptide (Xip251-270)
Test: small-molecule binders of XIP peptide, primary screen, biochemical, small-molecule microarray, fluorescence 635/667 nm, 0.5 µg/mL protein (AID 1183)
Conditions: small-molecule microarray binding, fluorescence 635 nm; higher = more signal
Recorded composite z-score by entry
Field format: numeric only.

Consider the worked cases shown below.
O=C(NN=C1C[C@@H](O)[C@@H](O)[C@@H]2[C@@H]3C(=O)N(C[C@@H]4CCCO4)C(=O)[C@@H]3CC[C@H]12)OCc1ccccc1    -0.314
CC(C)CON=C1C[C@@H](O)[C@@H](O)[C@@H]2[C@@H]3C(=O)N(C(C)(C)C)C(=O)[C@@H]3CC[C@H]12    0.494
CO[C@H]1COC(=O)CC=C[C@H](C)[C@@H](OC)COC(=O)[C@@H](C)NC(=O)CC=C[C@@H]1C    0.54
Cc1ccc(S(=O)(=O)N[C@H]2COC(=O)CC=C[C@@H](C)COC(=O)CC=C[C@@H]2C)cc1    0.921
COC(=O)CC=C[C@@H](C)[C@@H](C=NO[C@@H]1O[C@H](COC(C)=O)[C@@H](OC(C)=O)[C@H](OC(C)=O)[C@H]1OC(C)=O)OC    -0.17
C=CC[C@@H]1C=C[C@H](ON=C[C@@H](C)[C@H](OCc2ccccc2)C(C)C)[C@@H](CO)O1    0.256
CC(=O)OC[C@H]1O[C@@H](ON=C(C)CCN2CCCc3nc(C)c(C)cc32)[C@H](OC(C)=O)[C@@H](OC(C)=O)[C@@H]1OC(C)=O    0.667
CCOC(=O)[C@H](CC(C)C)NC(=O)CCC1CC(OC(=O)NCc2cccc3ccccc23)CC2(CCCC(COC(=O)NCc3ccncc3)O2)O1 (stereo partly drawn)    0.53

Please fill in: composite z-score reported for CCOC(=O)[C@H](CC(C)C)NC(=O)CCC1CC(OC(=O)NCCc2ccc(F)cc2)CC2(CCCC(COC(=O)NCCC(C)C)O2)O1 (stereo partly drawn) = -0.228

// recorded composite z-score for `COC(=O)[C@@H]1CC[C@H](C)[C@@H](c2ccc(C)cc2)N1C(=O)c1ccc(C=NO[C@H](C)c2cn([C@@H]3COC[C@H]3O)nn2)cc1` : 0.78

For record `C=CC[C@@H]1C=C[C@H](ON=C(C)CCC(=O)OC[C@H]2O[C@H](C#Cc3ccccc3)C=C[C@@H]2Oc2ccc(C)cc2)[C@@H](CO)O1` the listed composite z-score is 0.437

Reported composite z-score for `COc1ccc(O[C@@H]2[C@H](O)CO[C@@H]2C=Cc2ccccc2)cc1` was 0.592

----------
Recorded composite z-score for the following molecules
Assay: small-molecule binders of probe aLefty1, primary screen, biochemical, small-molecule microarray, 635/667 nm fluorescence (AID 1153);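 note: score merges spot fluorescence with signal-to-noise ratio from the scanned slide images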
Conditions: higher = more signal
The answer should be written as a number, with no unit following it.

CCO[C@H](c1cc(OC)cc([N+](=O)[O-])c1OC)[C@H](C)C=CCC(=O)OC    -0.202
CCOC(=O)[C@H](Cc1ccccc1)NC(=O)CCC1CC(OC(=O)NCCc2ccc(F)cc2)CC2(CCCC(COC(=O)NCCCN3CCCC3=O)O2)O1 (some centres undefined)    -0.105
CCCCC#C[C@@H]1C=C[C@H](Oc2cc(OC)c(OC)c(OC)c2)[C@@H](COC(=O)OCC)O1    -0.147

The recorded composite z-score for `CC(C)=CCCC(C)=CCON=C1C[C@@H](O)[C@@H](O)[C@@H]2[C@@H]3C(=O)N(Cc4ccccc4)C(=O)[C@@H]3CC[C@@H]12` is -0.241

Looking up `COc1ccc(O[C@H]2C=C[C@@H](c3ccccc3)O[C@@H]2COC(=O)CCC(C)=NO[C@@H]2O[C@H](COC(C)=O)[C@@H](OC(C)=O)[C@H](OC(C)=O)[C@H]2OC(C)=O)cc1` , I found its composite z-score recorded as -0.019

Value of composite z-score reported for the molecule `C#CCCCON=C1C[C@@H](O)[C@@H](O)[C@@H]2[C@@H]3C(=O)N(C(C)(C)C)C(=O)[C@@H]3CC[C@H]12` is 0.571

Sample `CC(C)CON=C1C[C@@H](O)[C@@H](O)[C@@H]2[C@@H]3C(=O)N(Cc4ccc5c(c4)OCO5)C(=O)[C@@H]3CC[C@H]12` ; composite z-score observed: -0.198

Notebook: `CC(C)CON=C1C[C@@H](O)[C@@H](O)[C@@H]2[C@@H]3C(=O)N(c4cccc(Oc5ccccc5)c4)C(=O)[C@@H]3CC[C@@H]12` , composite z-score read as -0.321

Consider `CO[C@@H]1COC(=O)[C@@H](C)NC(=O)CC=C[C@@H](C)[C@H](NS(=O)(=O)c2ccc(C)cc2)COC(=O)[C@H](C)NC(=O)CC=C[C@H]1C` . Its measured composite z-score is -0.145

composite z-score reported for this molecule `CO[C@@H]1COC(=O)[C@H](CCSC)NC(=O)CC=C[C@@H](C)COC(=O)CCC[C@H]1C` : 0.729

# composite z-score of `COC(=O)CC=C[C@@H](C)[C@@H](C=NO[C@@H]1O[C@H](COC(C)=O)[C@@H](OC(C)=O)[C@H](OC(C)=O)[C@H]1OC(C)=O)OC` = 0.142

composite z-score measured on CCOC(=O)[C@H](Cc1ccccc1)NC(=O)OC1CC(CCC2CC(CC)=NO2)OC2(CCCC(COC(=O)NCCC(C)C)O2)C1 (some centres undefined) = -0.101

Measured composite z-score of `C#CCCCON=C1C[C@@H](O)[C@@H](O)[C@@H]2[C@@H]3C(=O)N(CC)C(=O)[C@@H]3CC[C@@H]12` : -0.243

Measured composite z-score of Cc1ccc(S(=O)(=O)NC(CCc2ccccc2)CC(=O)C(C)(C)C)cc1 (centres undefined) : -0.125

Data credit: PubChem BioAssay
